- System: transactivating tegument protein VP16 (Human herpesvirus 1), Gal4-VP16 luciferase reporter
- test: VP16 transactivation inhibitors, counter-screen for SRC3 inhibitor project, cell-based, luminescence, high throughput (AID 588794)
- runConditions: mammalian cells, VP16-driven luciferase reporter luminescence; at 3.6 µM; stronger effect = higher value

compound: Cc1cc(C(=O)CSc2nc3ccccc3[nH]2)c(C)n1CC1CCCO1 (centres undefined)
systemName: transactivating tegument protein VP16 (Human herpesvirus 1), Gal4-VP16 luciferase reporter
inhibition, %: 30.5
--
compound: CCN(CC)S(=O)(=O)c1ccc(/C=C/C(=O)Nc2ccc(F)c(F)c2F)cc1
systemName: transactivating tegument protein VP16 (Human herpesvirus 1), Gal4-VP16 luciferase reporter
inhibition, %: 30.7
--
compound: COc1ccc(NS(=O)(=O)c2ccc(NC(=O)c3ccc(N(C)S(C)(=O)=O)cc3)cc2)c(OC)c1
systemName: transactivating tegument protein VP16 (Human herpesvirus 1), Gal4-VP16 luciferase reporter
inhibition, %: 37
--
compound: Cc1nnnn1/C(=C\c1ccccc1)C(=O)OCC(=O)Nc1cccc(S(=O)(=O)N(C)C)c1
systemName: transactivating tegument protein VP16 (Human herpesvirus 1), Gal4-VP16 luciferase reporter
inhibition, %: 13.2
--
compound: CCOC(=O)c1c(C)[nH]c(C)c1C(=O)COC(=O)/C=C/c1cccc(Cl)c1
systemName: transactivating tegument protein VP16 (Human herpesvirus 1), Gal4-VP16 luciferase reporter
inhibition, %: -1.23
--
compound: CN(CCOc1ccc(Cl)cc1)C(=O)c1cccc(S(=O)(=O)N2CCN(c3ccc(F)cc3)CC2)c1
systemName: transactivating tegument protein VP16 (Human herpesvirus 1), Gal4-VP16 luciferase reporter
inhibition, %: 41.2
--
compound: COc1ccc(C)cc1NC(=O)c1nnn(Cc2cccc(F)c2)c1N
systemName: transactivating tegument protein VP16 (Human herpesvirus 1), Gal4-VP16 luciferase reporter
inhibition, %: 26.1
--
compound: CCCC(=O)NC(NC(=S)Nc1ccc(N=Nc2ccccc2)cc1)C(Cl)(Cl)Cl (centres undefined)
systemName: transactivating tegument protein VP16 (Human herpesvirus 1), Gal4-VP16 luciferase reporter
inhibition, %: 18.1
--
compound: O=C(NC1CCCCC1)C(c1cccnc1)N(C(=O)CCl)c1cccc(Cl)c1 (centres undefined)
systemName: transactivating tegument protein VP16 (Human herpesvirus 1), Gal4-VP16 luciferase reporter
inhibition, %: 26.8
--
compound: COc1ccc(CN(C)C(=O)c2ccc(OCC(=O)Nc3cccc(C(F)(F)F)c3)c(OC)c2)cc1
systemName: transactivating tegument protein VP16 (Human herpesvirus 1), Gal4-VP16 luciferase reporter
inhibition, %: 24.7
--
compound: COc1cccc(CNCCO)c1OCc1ccccc1
systemName: transactivating tegument protein VP16 (Human herpesvirus 1), Gal4-VP16 luciferase reporter
inhibition, %: 8.14
--
compound: Cc1nc([N+](=O)[O-])c(Sc2nc3ccccc3[nH]2)n1Cc1ccccc1
systemName: transactivating tegument protein VP16 (Human herpesvirus 1), Gal4-VP16 luciferase reporter
inhibition, %: 6.02
--
compound: CCOC(=O)c1cnc(SC2CC(=O)N(c3cccc(OC)c3)C2=O)nc1N (centres undefined)
systemName: transactivating tegument protein VP16 (Human herpesvirus 1), Gal4-VP16 luciferase reporter
inhibition, %: 6.73
--
compound: Cc1ccc(NS(=O)(=O)c2ccc(OCC(=O)NCc3ccncc3)cc2)cc1
systemName: transactivating tegument protein VP16 (Human herpesvirus 1), Gal4-VP16 luciferase reporter
inhibition, %: 6.6
--
compound: COC(=O)COc1cccc(NC(=O)c2cccs2)c1
systemName: transactivating tegument protein VP16 (Human herpesvirus 1), Gal4-VP16 luciferase reporter
inhibition, %: -12.7
--
compound: c1cncc(CNc2ncnc3sc4c(c23)CCC4)c1
systemName: transactivating tegument protein VP16 (Human herpesvirus 1), Gal4-VP16 luciferase reporter
inhibition, %: 9.1
--
compound: O=C(CCl)N1N=C(c2cccs2)CC1c1ccco1 (centres undefined)
systemName: transactivating tegument protein VP16 (Human herpesvirus 1), Gal4-VP16 luciferase reporter
inhibition, %: 6.29
--
compound: COc1ccc2ncn(-c3ccccc3)c2c1
systemName: transactivating tegument protein VP16 (Human herpesvirus 1), Gal4-VP16 luciferase reporter
inhibition, %: 32.7
--
compound: O=C(NNC1=Nc2ccccc2SC1)c1ccc(Cl)cc1
systemName: transactivating tegument protein VP16 (Human herpesvirus 1), Gal4-VP16 luciferase reporter
inhibition, %: 5.18
--
compound: Cc1noc(C)c1COC(=O)c1cc(F)c(F)cc1Cl
systemName: transactivating tegument protein VP16 (Human herpesvirus 1), Gal4-VP16 luciferase reporter
inhibition, %: 1.74
--
compound: O=C(Nc1cccnc1)c1ccc(C(=O)Nc2cccnc2)cc1
systemName: transactivating tegument protein VP16 (Human herpesvirus 1), Gal4-VP16 luciferase reporter
inhibition, %: 19.1
--
compound: O=C(NCc1cccnc1)/C(=C/c1ccc(-c2ccc(Cl)cc2)o1)S(=O)(=O)c1ccccc1
systemName: transactivating tegument protein VP16 (Human herpesvirus 1), Gal4-VP16 luciferase reporter
inhibition, %: 62.8
--
compound: C=C1C(=O)C2=CC1CCC(=O)C1(C)CCC(OC(C)=O)C(C)(C)C1CC2O (centres undefined)
systemName: transactivating tegument protein VP16 (Human herpesvirus 1), Gal4-VP16 luciferase reporter
inhibition, %: 53.2
--
compound: O=C(/C=C/c1ccc(O)cc1)c1ccc(NC2=C(N3CCCCC3)C(=O)c3ccccc3C2=O)cc1
systemName: transactivating tegument protein VP16 (Human herpesvirus 1), Gal4-VP16 luciferase reporter
inhibition, %: 26.1
--
compound: O=C(OCC12CC3CC(CC(C3)C1)C2)c1ccc(NCc2cc(O)ccc2O)cc1
systemName: transactivating tegument protein VP16 (Human herpesvirus 1), Gal4-VP16 luciferase reporter
inhibition, %: 47.5
--
compound: O=[N+]([O-])c1ccc2ncnc(N3CCN(Cc4ccc5c(c4)OCO5)CC3)c2c1
systemName: transactivating tegument protein VP16 (Human herpesvirus 1), Gal4-VP16 luciferase reporter
inhibition, %: 53.2
--
compound: CC(=O)Nc1cccc(C(=O)/C=C/c2ccc(Br)cc2)c1
systemName: transactivating tegument protein VP16 (Human herpesvirus 1), Gal4-VP16 luciferase reporter
inhibition, %: 11
--
compound: COc1ccc(Nc2ccnc3ccccc23)cc1
systemName: transactivating tegument protein VP16 (Human herpesvirus 1), Gal4-VP16 luciferase reporter
inhibition, %: 30.3
--
compound: O=C(OC(c1ccccc1)c1nccc2ccccc12)c1ccccc1 (centres undefined)
systemName: transactivating tegument protein VP16 (Human herpesvirus 1), Gal4-VP16 luciferase reporter
inhibition, %: 42.8

* * *

Entries and their inhibition values follow.
- test: VP16 transactivation reporter inhibitors, counter-screen for LRH-1 inverse agonist project, cell-based, luminescence, high throughput (AID 651615)
- runConditions: Gal4-VP16 luciferase reporter cells, at 3.6 µM, stronger effect = higher value
assayEndpoint: inhibition (%)

itemSmiles: CCn1c(C)cc(C(=O)COC(=O)c2ccccc2[N+](=O)[O-])c1C
numericResult: 81.4

itemSmiles: Cc1c(C(C)C)c(=O)n(-c2ccc(S(=O)(=O)NCc3ccccc3)cc2)n1C
numericResult: 44.1

itemSmiles: COc1ccc(CNc2ncnc3ccccc23)cc1
numericResult: 62.8

* * *

- systemName: Nuclear receptor subfamily 5 group A member 2 (Homo sapiens)
- test: LRH-1 (NR5A2) inverse agonists, retest, confirmation, cell-based, luminescence (AID 651613);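 note: HEK293T cells co-transfected with LRH-1 and StAR promoter luciferase reporter; 0% = vehicle wells and 100% = parental cells lacking receptor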
- runConditions: cell-based LRH-1 luciferase reporter, inverse agonism; at 3.6 µM; stronger effect = higher value
Rule: satisfied for inhibition not less than 70%, not satisfied for anything less.

compound: Cc1ccc(SCc2ccc(C(=O)NCc3ccncc3)cc2)cc1
category: not satisfied
//
compound: OC[C@@H]1CN(Cc2ccc(-c3ccccc3)cc2)C[C@H](n2cnc3c(NCc4ccco4)ncnc32)O1
category: not satisfied
//
compound: Cc1ccsc1CNc1ncnc2ccc(-c3c(C)noc3C)cc12
category: not satisfied
//
compound: Cc1c(Cl)cccc1NC(=O)CSc1nnc(C)n1CC1CCCO1 (stereo unspecified)
category: not satisfied
//
compound: Cc1ccc(Cl)cc1N1CCN(C(=O)C(C)n2ncn3cccc3c2=O)CC1 (stereo unspecified)
category: not satisfied
//
compound: CC(C)c1cc(NC(=O)CCl)on1
category: not satisfied
//
compound: Cc1cc(OCC(=O)Nc2nccs2)c2c(C)cc(=O)oc2c1
category: not satisfied
//
compound: CC(C)(C)NCC(=Cc1ccccc1)C(=O)c1ccccc1
category: satisfied
//
compound: COc1cccc(N2CCN(c3ncnc4c3[nH]c3ccc(F)cc34)CC2C)c1 (stereo unspecified)
category: satisfied
//
compound: O=C(NCc1ccco1)c1ccc([N+](=O)[O-])o1
category: not satisfied
//
compound: CCCc1cc(NCCOCCO)n2c(nc3ccccc32)c1C#N
category: not satisfied
//
compound: Cn1c(SCC(=O)Nc2ccc(N3CCOCC3)cc2)nnc1-c1ccccc1
category: not satisfied
//
compound: CC(C)c1ccc(/C=C(\c2nc3ccccc3[nH]2)S(=O)(=O)c2ccccc2)cc1
category: not satisfied
//
compound: CCN1/C(=C/c2ccc3cccc(C)c3[n+]2CC)Sc2ccccc21
category: satisfied
